Source: paper PMC12416549

Would you kindly list apparent Kd (screen) for each of these binders?
measuredTarget: T1, TNFR1 (Homo sapiens, UniProt P19438)
T1 chain: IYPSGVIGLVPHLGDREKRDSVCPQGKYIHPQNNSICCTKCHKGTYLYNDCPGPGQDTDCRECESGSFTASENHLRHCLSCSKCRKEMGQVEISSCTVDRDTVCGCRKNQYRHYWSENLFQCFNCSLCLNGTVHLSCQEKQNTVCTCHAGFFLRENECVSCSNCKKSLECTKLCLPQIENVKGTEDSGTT
testDescription: yeast display SC50
Numeric answer only, unit nM assumed.

For the binder E16W (designed binder) MTLQELLREEALRRAWAEAFRYALELLAEKFPEQKEYLLDLAEEIESQIRSLSGVDVEDVRKFLDKEWAWVKELLAEHPAELAEVEAARAARLAELRAEVEAKVAA , report apparent Kd (screen). 1.16

Quickly give me recorded apparent Kd (screen) for D59V (designed binder) MTLQELLREEALRRAEAEAFRYALELLAEKFPEQKEYLLDLAEEIESQIRSLSGVDVEVVRKFLDKEWAWVKELLAEHPAELAEVEAARAARLAELRAEVEAKVAA 0.653

Supply measured apparent Kd (screen) of V104P (designed binder) MTLQELLREEALRRAEAEAFRYALELLAEKFPEQKEYLLDLAEEIESQIRSLSGVDVEDVRKFLDKEWAWVKELLAEHPAELAEVEAARAARLAELRAEVEAKPAA in your reply. 0.718

Give recorded apparent Kd (screen). A15Q (designed binder) MTLQELLREEALRRQEAEAFRYALELLAEKFPEQKEYLLDLAEEIESQIRSLSGVDVEDVRKFLDKEWAWVKELLAEHPAELAEVEAARAARLAELRAEVEAKVAA 0.718
